Where do the numbers come from? From patent US20120010206A1.

- tgt: TAK1-TAB1 fusion protein (Homo sapiens, UniProt O43318)
- testName: In vitro TAK1 kinase assay (33P-ATP, casein substrate)
- statedConditions: semi-quantitative score, at least two independent experiments
assayMetric: IC50

Please review the entries below; each comes with its answer.
{"structureString": "O=C(c1ccc(Nc2ccc(-c3cc[nH]c(=O)c3)n3ccnc23)cc1)N1CCC(N2CCCCC2)CC1", "IC50": "< 0.1 µM"}
{"structureString": "CC(C)CCN1CCN(c2ccc(Nc3ccc(-c4ccc(C(N)=O)cc4)n4ccnc34)cc2)CC1", "IC50": "0.101 to 1 µM"}
{"structureString": "CC(C)N1CCN(c2ccc(Nc3ccc(-c4ccc5c(c4)CNC5=O)n4ccnc34)cc2)CC1", "IC50": "< 0.1 µM"}
{"structureString": "NC(=O)c1ccc(-c2ccc(Nc3ccc(N4CCOCC4)c(F)c3)c3nccn23)cc1", "IC50": "1 to 3 µM"}
{"structureString": "CCC(CC)N1CCN(c2ccc(Nc3ccc(-c4cn[nH]c4)n4ccnc34)cc2)CC1", "IC50": "0.101 to 1 µM"}

Let's switch to this compound now.
Reported IC50 for Cc1cc(CNC(=O)c2ccc(Nc3ccc(-c4ccc5c(c4)CNC5=O)n4ccnc34)cc2)no1 was 1 to 3 µM

---

- tgt: TAK1-TAB1 fusion protein (Homo sapiens, UniProt O43318)
- testName: In vitro TAK1 kinase assay (33P-ATP, casein substrate)
- statedConditions: semi-quantitative score, at least two independent experiments
assayMetric: IC50

Recorded IC50, per entry:
{"molecule": "NC(=O)c1ccc(-c2ccc(Nc3ccc(N4CCN(C5CCCCC5)CC4)cc3)c3nccn23)cc1", "IC50": "101 to 1000 nM"}
{"molecule": "CCN1CCN(c2ccc(Nc3ccc(-c4ccc(C(N)=O)cc4)n4ccnc34)cc2)CC1", "IC50": "101 to 1000 nM"}
{"molecule": "O=c1cc(-c2ccc(Nc3ccc(N4CCC(F)(F)CC4)cc3)c3nccn23)cc[nH]1", "IC50": "> 3000 nM"}
{"molecule": "CC1CN(c2ccc(Nc3ccc(-c4cc[nH]c(=O)c4)n4ccnc34)cc2)CC(C)N1 (stereo not drawn)", "IC50": "101 to 1000 nM"}
{"molecule": "CC1CCN(C2CCN(C(=O)c3ccc(Nc4ccc(-c5ccc6c(c5)CNC6=O)n5ccnc45)cc3)CC2)CC1", "IC50": "101 to 1000 nM"}
{"molecule": "O=c1cc(-c2ccc(Nc3ccc(N4CCOCC4)c(F)c3)c3nccn23)cc[nH]1", "IC50": "101 to 1000 nM"}
{"molecule": "CC(C)N1CCN(c2ccc(Nc3ccc(-c4ccc(C(N)=O)cc4)n4ccnc34)cc2F)CC1", "IC50": "101 to 1000 nM"}
{"molecule": "NC(=O)c1ccc(-c2ccc(Nc3ccc(N4CCOCC4)c(F)c3)c3nccn23)cc1Cl", "IC50": "> 3000 nM"}

Let us examine a further case.
response.value for CCOCCN1CCN(C(=O)c2ccc(Nc3ccc(-c4ccc5c(c4)CNC5=O)n4ccnc34)cc2)CC1 (field: IC50) = 101 to 1000 nM

---

Some molecules, each annotated with its measured pIC50.
- tgt: TAK1-TAB1 fusion protein (Homo sapiens, UniProt O43318)
- Sequence (O43318 with tags, fused parts or gaps limits assumed): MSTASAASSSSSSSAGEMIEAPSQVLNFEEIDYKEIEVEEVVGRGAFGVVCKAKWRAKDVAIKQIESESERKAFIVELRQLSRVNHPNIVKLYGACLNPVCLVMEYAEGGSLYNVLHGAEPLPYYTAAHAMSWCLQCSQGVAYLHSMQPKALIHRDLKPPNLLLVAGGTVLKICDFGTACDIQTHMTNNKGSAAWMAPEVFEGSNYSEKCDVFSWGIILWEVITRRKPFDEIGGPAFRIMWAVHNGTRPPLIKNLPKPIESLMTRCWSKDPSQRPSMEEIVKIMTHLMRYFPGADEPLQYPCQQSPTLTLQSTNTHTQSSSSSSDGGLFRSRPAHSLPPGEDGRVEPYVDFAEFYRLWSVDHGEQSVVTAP
- testName: In vitro TAK1 kinase assay (33P-ATP, casein substrate)
- statedConditions: semi-quantitative score, at least two independent experiments
- Description: For assessing TAK1 inhibition, active TAK1-TAB1 fusion protein was used from Upstate (Cat. No, 14-600). […] The assay is stopped 90 minutes after incubation at 30° C. by the addition of 25 μL phosphoric acid (150 mM). […] After 6 washes with 75 mM phosphoric acid, the bottom of the filter plates are sealed, and incorporated label is quantified after addition of 40 μL scintillation fluid using TopCount. […]
pIC50: −log10 of the molar value.

Take a look at these entries with their results.
{"molecule": "CC(C)N1CCC(c2ccc(Nc3ccc(-c4ccc5c(c4)CNC5=O)n4ccnc34)cc2)CC1 [Compound 19]", "tgt": "TAK1-TAB1 fusion protein (Homo sapiens, UniProt O43318)", "pIC50": "> 7.00"}
{"molecule": "O=c1cc(-c2ccc(Nc3ccc(N4CCN(CC(F)F)CC4)cc3)c3nccn23)cc[nH]1 [Compound 110]", "tgt": "TAK1-TAB1 fusion protein (Homo sapiens, UniProt O43318)", "pIC50": "< 5.52"}
{"molecule": "CCCN1CCN(c2ccc(Nc3ccc(-c4cc[nH]c(=O)c4)n4ccnc34)cc2)CC1 [Compound 84]", "tgt": "TAK1-TAB1 fusion protein (Homo sapiens, UniProt O43318)", "pIC50": "6.00 to 7.00"}

The measured pIC50 associated with CNC(=O)C1CCN(C(=O)c2ccc(Nc3ccc(-c4ccc5c(c4)CNC5=O)n4ccnc34)cc2)CC1 [Compound 41] reads 6.00 to 7.00

The molecule CN(C)c1ccc(CNS(=O)(=O)c2ccc(Nc3ccc(-c4ccc5c(c4)CNC5=O)n4ccnc34)cc2)cc1 [Compound 25] showed pIC50 equal to 6.00 to 7.00
